Experimental System: MBP (Escherichia coli)
Measurement Description: Fluorescence anisotropy, MBP negative control
Assay type: binding
Conditions Used: 5-FAM peptide, replicate Y3, sheet KD-L2-14-mer, unit inferred, read-out: KD MBP
pKd: −log10 of the molar value. Where no end group is shown, it is not given here.
Assay Endpoint: pKd

Problem: // fetch MBP (Escherichia coli) pKd for KLITYDNPAYEGID [L2 14-mer]
Result: < 4.49

----------
Experimental System: SNX17FERM-CT (amino acids 109-470) (Homo sapiens)
Construct: His-Sumo3 (N, cleaved yes); made in house; host or cells: Escherichia coli BL21(DE3)
Sequence (Q15036 109-470): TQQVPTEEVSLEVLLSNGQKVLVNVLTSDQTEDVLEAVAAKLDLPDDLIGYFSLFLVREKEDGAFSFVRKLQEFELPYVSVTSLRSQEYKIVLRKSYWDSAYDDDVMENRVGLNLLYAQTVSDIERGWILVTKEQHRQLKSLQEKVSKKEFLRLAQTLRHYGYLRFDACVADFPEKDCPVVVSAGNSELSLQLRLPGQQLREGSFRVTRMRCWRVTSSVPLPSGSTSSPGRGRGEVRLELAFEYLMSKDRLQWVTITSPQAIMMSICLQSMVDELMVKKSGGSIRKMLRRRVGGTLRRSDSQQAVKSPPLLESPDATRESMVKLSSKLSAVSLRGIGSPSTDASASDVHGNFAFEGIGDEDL
Measurement Description: Fluorescence anisotropy binding of 5-FAM cargo peptides to SNX17FERM-CT
Where no end group is shown, it is not given here.
Assay Endpoint: pKd
A value of pKd is the negative decimal logarithm of a concentration given in moles per litre.

Problem: Reported pKd, sequence KLITYDNPAYEGID [L2 14-mer] : ____
Result: 6.19
